tested on: HuT78; assay: Giant-cell formation between persistently HIV-1 infected HUT-78 cells and uninfected MOLT-4 cells; type: functional, cell-based; settings: hut78
readoutKind: EC50 (µg/mL)
Number in µg/mL, nothing else.

Entry CCCCCC(=O)OC/C(=C\C(=O)[O-])OC1OC(COS(=O)(=O)[O-])C(OC2OC(C(=O)[O-])C(OC3OC(COS(=O)(=O)[O-])C(OC4OC(C(=O)[O-])C(OC5OC(CS(=O)(=O)[O-])C(O)C(OC(=O)CCCCC)C5NS(=O)(=O)[O-])C(OC(=O)CCCCC)C4OS(=O)(=O)[O-])C(OC(=O)CCCCC)C3NS(=O)(=O)[O-])C(OC(=O)CCCCC)C2OS(=O)(=O)[O-])C(OC(=O)CCCCC)C1NS(=O)(=O)[O-].[Na+].[Na+].[Na+].[Na+].[Na+].[Na+].[Na+].[Na+].[Na+].[Na+].[Na+] (stereo in doubt; 3h) , EC50 reported as 3

---

Listed molecules paired with reported Selectivity index
system: MT4; test: Selectivity index for CC50 (cytotoxic concentration based on reduction of viability of mock-infected MT-4 cells) to that of EC50 against HIV-2; format: functional

Entry O=C([O-])/C=C(\CO)OC1OC(COS(=O)(=O)[O-])C(OC2OC(C(=O)[O-])C(OC3OC(COS(=O)(=O)[O-])C(OC4OC(C(=O)[O-])C(OC5OC(COS(=O)(=O)[O-])C(O)C(O)C5NS(=O)(=O)[O-])C(O)C4OS(=O)(=O)[O-])C(O)C3NS(=O)(=O)[O-])C(O)C2OS(=O)(=O)[O-])C(O)C1NS(=O)(=O)[O-].[Na+].[Na+].[Na+].[Na+].[Na+].[Na+].[Na+].[Na+].[Na+].[Na+].[Na+] (stereo in doubt; 2a) , Selectivity index reported as >80

Entry O=C(/C=C(\CO)OC1OC(COS(=O)(=O)[O-])C(OC2OC(C(=O)OCc3ccccc3)C(OC3OC(COS(=O)(=O)[O-])C(OC4OC(C(=O)OCc5ccccc5)C(OC5OC(COS(=O)(=O)[O-])C(O)C(O)C5NS(=O)(=O)[O-])C(O)C4OS(=O)(=O)[O-])C(O)C3NS(=O)(=O)[O-])C(O)C2OS(=O)(=O)[O-])C(O)C1NS(=O)(=O)[O-])OCc1ccccc1.[Na+].[Na+].[Na+].[Na+].[Na+].[Na+].[Na+].[Na+] (stereo unspecified) , Selectivity index reported as >1250

Entry O=C([O-])/C=C(\COC(=O)c1ccccc1)OC1OC(COS(=O)(=O)[O-])C(OC2OC(C(=O)[O-])C(OC3OC(COS(=O)(=O)[O-])C(OC4OC(C(=O)[O-])C(OC5OC(COS(=O)(=O)[O-])C(O)C(OC(=O)c6ccccc6)C5NS(=O)(=O)[O-])C(OC(=O)c5ccccc5)C4OS(=O)(=O)[O-])C(OC(=O)c4ccccc4)C3NS(=O)(=O)[O-])C(OC(=O)c3ccccc3)C2OS(=O)(=O)[O-])C(OC(=O)c2ccccc2)C1NS(=O)(=O)[O-].[Na+].[Na+].[Na+].[Na+].[Na+].[Na+].[Na+].[Na+].[Na+].[Na+].[Na+] (stereo unspecified) , Selectivity index reported as >2500

More entries:
Entry CCCCCC(=O)OC/C(=C\C(=O)[O-])OC1OC(COS(=O)(=O)[O-])C(OC2OC(C(=O)[O-])C(OC3OC(COS(=O)(=O)[O-])C(OC4OC(C(=O)[O-])C(OC5OC(CS(=O)(=O)[O-])C(O)C(OC(=O)CCCCC)C5NS(=O)(=O)[O-])C(OC(=O)CCCCC)C4OS(=O)(=O)[O-])C(OC(=O)CCCCC)C3NS(=O)(=O)[O-])C(OC(=O)CCCCC)C2OS(=O)(=O)[O-])C(OC(=O)CCCCC)C1NS(=O)(=O)[O-].[Na+].[Na+].[Na+].[Na+].[Na+].[Na+].[Na+].[Na+].[Na+].[Na+].[Na+] (stereo in doubt; 3g) , Selectivity index reported as >650

Entry CCCC(=O)OCC1OC(OC2C(C(=O)[O-])OC(OC3C(NC(C)=O)C(OC4C(C(=O)[O-])OC(C)C(OC(=O)CCC)C4O)OC(COC(=O)CCC)C3OS(=O)(=O)[O-])C(OC(=O)CCC)C2OC(=O)CCC)C(NC(C)=O)C(OC)C1OS(=O)(=O)[O-].[Na+].[Na+].[Na+].[Na+] (stereo unspecified) , Selectivity index reported as 25

Entry CCCCCCCCOC(=O)/C=C(\CO)OC1OC(COS(=O)(=O)[O-])C(OC2OC(C(=O)OCCCCCCCC)C(OC3OC(COS(=O)(=O)[O-])C(OC4OC(C(=O)OCCCCCCCC)C(OC5OC(COS(=O)(=O)[O-])C(O)C(O)C5NS(=O)(=O)[O-])C(O)C4OS(=O)(=O)[O-])C(O)C3NS(=O)(=O)[O-])C(O)C2OS(=O)(=O)[O-])C(O)C1NS(=O)(=O)[O-].[Na+].[Na+].[Na+].[Na+].[Na+].[Na+].[Na+].[Na+] (stereo in doubt; 7g) , Selectivity index reported as >1000
